Values from PubChem BioAssay (NCI)

# Tested on: 786-0 renal
# experimentDescription: NCI tumour cell line growth inhibition, 48 h
Recorded GI50 values for a group of molecules are listed next.
assayMetric: GI50

>>> df
                                   compound  assaymetric  recordedresult
0  Cn1cc(C2=C(c3cn(CCO)c4ccccc34)C(=O)NC2=O)c2ccccc21         GI50         5.01 µM
1          CCOc1ccccc1NC(=O)c1cc2ccccc2cc1O         GI50         3.34 µM
2               CCCCCc1nc2c(c3c1CCCC3)CCCC2         GI50         13.4 µM
3  CCN1/C(=C/C=C/c2n(-c3ccccc3)c3ccc(-c4nc5ccccc5s4)cc3[n+]2CC)N(c2ccccc2)c2ccc(-c3nc4ccccc4s3)cc21         GI50        0.602 µM
